System: NCI-H2228
Experiment: relative viability (nuclei count vs DMSO), 5 days (fraction); higher = more cells survive
Details: first compound 0.08 µM
property: relative viability

{"compound": "Oc1nc(-c2ccc(C(F)(F)F)cc2)nc2c1CSCC2 [XAV939] + Cc1cc(Nc2cc(N3CCN(C)CC3)nc(Sc3ccc(NC(=O)C4CC4)cc3)n2)n[nH]1 [Tozasertib] (partner 0.1 µM)", "system_name": "NCI-H2228", "property": "relative viability", "recorded_value": 0.31}
{"compound": "C=C1C(=O)O[C@@H](CCCCCCCC)[C@@H]1C(=O)O [C-75] + CC(C)C[C@H](NC(=O)[C@H](Cc1ccccc1)NC(=O)c1cnccn1)B(O)O [Bortezomib] (partner 0.002 µM)", "system_name": "NCI-H2228", "property": "relative viability", "recorded_value": 0.836}
{"compound": "C=C1C(=O)O[C@@H](CCCCCCCC)[C@@H]1C(=O)O [C-75] + C[C@@H](Oc1cc(-c2cnn(C3CCNCC3)c2)cnc1N)c1c(Cl)ccc(F)c1Cl [Crizotinib] (partner 1 µM)", "system_name": "NCI-H2228", "property": "relative viability", "recorded_value": 0.548}
